Assay: self-splicing fitness, log relative to wild type (ln ratio); higher = more splicing; Tetrahymena group I intron in knt gene, E. coli kanamycin selection, DiMSum; sequences stand for … in CUCUCU…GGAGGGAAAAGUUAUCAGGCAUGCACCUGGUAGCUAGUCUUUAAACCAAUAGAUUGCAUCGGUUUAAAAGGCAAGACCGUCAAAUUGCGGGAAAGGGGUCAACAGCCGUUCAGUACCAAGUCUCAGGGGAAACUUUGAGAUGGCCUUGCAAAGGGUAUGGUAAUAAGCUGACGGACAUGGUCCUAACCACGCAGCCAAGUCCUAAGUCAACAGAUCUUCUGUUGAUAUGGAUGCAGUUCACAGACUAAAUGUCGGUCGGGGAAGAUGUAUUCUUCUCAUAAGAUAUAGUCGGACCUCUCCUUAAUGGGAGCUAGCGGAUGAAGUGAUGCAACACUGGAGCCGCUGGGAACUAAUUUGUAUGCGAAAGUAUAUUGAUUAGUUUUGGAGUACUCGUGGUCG;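 further: selection with 25 µg/mL kanamycin versus none on LB agar overnight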
Conditions: 30 °C
Would you kindly list self-splicing fitness (ln) for each of these sequences?
Number, no unit, nothing else.

Respond only with self-splicing fitness (ln) recorded for AUACAGCAAUAUUACGUGUG
-1.73

Quick one: give measured self-splicing fitness (ln) for GAUAAGCAAUAUUACGUUUC
-3.88

Provide one value: measured self-splicing fitness (ln) of UGGUAGCAAUAUUACGGAGG
-3.85

Output measured self-splicing fitness (ln) for this item: CCAAAGCAAUAUUACGCAAA
-3.41

Specify measured self-splicing fitness (ln) for GACGAGCAAUAUUACGCGCA .
-1.71

Please look at this sequence and report its self-splicing fitness (ln): UUCAAGCAAUAUUACGUUAU
-4.39

Identify measured self-splicing fitness (ln) associated with CAAGAGCAAUAUUACGGCUC
-3.78

Answer with the recorded self-splicing fitness (ln) of CGUCAGCAAUAUUACGUUGA only.
-3.04

Find the measured self-splicing fitness (ln) of GAACAGCAAUAUUACGUGGG and report it.
-3.42

Given GUGUAGCAAUAUUACGGUAA , respond with its self-splicing fitness (ln).
-2.48

Give the measured self-splicing fitness (ln) for CUACAGCAAUAUUACGAUCC
-4.14

Provide one value: measured self-splicing fitness (ln) of ACCAAGCAAUAUUACGCCUU
-2.87

Give self-splicing fitness (ln) for the following sequence: AUACAGCAAUAUUACGGCCA
-0.834

Report self-splicing fitness (ln) for CCAUAGCAAUAUUACGCGGA
-2.87

Look up self-splicing fitness (ln) of CGAAAGCAAUAUUACGUAGC and report it.
-3.4

Supply measured self-splicing fitness (ln) of AACUAGCAAUAUUACGCUGU in your reply.
-3.41
